The following compounds are shown together with reported MIC values.
System: Acinetobacter baumannii
Test: Antibacterial activity against Acinetobacter baumannii Bio 120982 after 16 to 18 hrs by broth microdilution method
Assay type: functional
Conditions: time 16-18 hrs
Give the value in µg/mL but do not write µg/mL after it.

Before answering, review these 4 worked examples.
CCCC[C@H](CN(O)C=O)C(=O)N1CCC[C@H]1c1nnc(-c2cccs2)s1: 4
CCCC[C@H](CN(O)C=O)C(=O)N1CCC[C@H]1C(=O)Nc1ccc(F)c[n+]1[O-]: 16
CCCC[C@H](CN(O)C=O)C(=O)N1CCC[C@H]1c1nnc(-c2ccc(-c3ccccn3)cc2)s1: 32
CC(=O)NC[C@H]1CN(c2ccc(N3CCOCC3)c(F)c2)C(=O)O1: 128

Now let's try a different one.
Would you kindly share the measured MIC for CCCC[C@H](CN(O)C=O)C(=O)N1CCC[C@H]1c1nnc(-c2ccc([N+](=O)[O-])cc2F)s1 ? 16
